B1: library; numbered along this chain (parent)
chain: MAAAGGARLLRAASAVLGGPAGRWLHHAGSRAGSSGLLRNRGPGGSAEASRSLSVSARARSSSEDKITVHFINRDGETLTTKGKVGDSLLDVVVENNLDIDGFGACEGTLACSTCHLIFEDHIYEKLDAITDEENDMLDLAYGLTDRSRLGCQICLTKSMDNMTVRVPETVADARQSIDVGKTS

Variants of: B1
Test Description: scaled log2 fold change in cell abundance, elesclomol vs control (0 = silent mean, 1 = nonsense mean) (scaled log2 ratio); higher = higher viability under elesclomol (loss of FDX1 cuproptosis function);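 note: variant abundance is its share of total variant reads in each endpoint sample, from next-generation sequencing of the integrated ORF PCR-amplified out of genomic DNA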
Condition Notes: with ABC1 FDX1 KO; elesclomol 5 nM; glucose 10 mM; 14 days
Entries and their measured scaled log2 fold change follow.

| Mutation Label | scaled log2 fold change |
| --- | --- |
| R31E | -0.00724 |
| E120A | 0.194 |
| S34W | 0.0117 |
| I118N | 0.286 |
| H116Y | 0.484 |
| V171H | -0.198 |
| S62D | 0.269 |
| N96C | -0.324 |
| H27A | -0.0135 |
| A174C | -0.397 |
| D136T | 0.611 |
| L150Q | 0.537 |
| V85H | -0.166 |
| G42L | 0.249 |
| G86V | 0.654 |
| E134D | 0.911 |
| R11W | 0.0433 |
| P20H | -0.216 |
| L144D | 0.171 |
| G33A | 0.0776 |
| E134S | 0.926 |
| G5N | 0.381 |
